Biological target: T1, human CD70, recombinant, N-terminally biotinylated (residues 39-193) (human, UniProt P32970 39-193, N-terminal biotin)
T1 construct: range 39-193; the same entry is used there; also called biotinylated human CD70; CD70 biotin
T1 sequence (looked up): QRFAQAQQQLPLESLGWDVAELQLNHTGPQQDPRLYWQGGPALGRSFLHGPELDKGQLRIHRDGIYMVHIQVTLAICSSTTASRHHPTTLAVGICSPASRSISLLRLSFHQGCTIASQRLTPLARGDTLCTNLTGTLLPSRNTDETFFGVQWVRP
Experiment: SPR
recorded.metric: Kd (nM)

>  <binder>
38-TC7-V-G06 (scFv, His-tagged) scFv: QMQLVQSGAEVKKPGSSVKVSCKASGGTFSSYAISWVRQAPGQGLEWMGWISAYNGNTNYAQKLQGRVTMTTDTSTSTAYMELRSLRSDDTAVYYCARDDYWGQGTLVTVSSGGSGGSGGSGGSSYELTQPPSVSVAPGKTARITCSGDVLGENYADWYQQKPGQAPELVIYEDSERYPGIPERFSGSTSGNTTTLTISRVLTEDEADYYCLSGDEDNRVFGGGTKLTVL

>  <reported.value>
182

$$$$
>  <binder>
39-TC6-IV-B08 (scFv, His-tagged; also called 1885) scFv: QVQLVESGGGVVQPGGSLRLSCAASGFTFSSYAMHWVRQAPGKGLEWVAVISYDGSNKYYADSVKGRFTISRDNSKNTLYLQMNSLRAEDTAVYYCARDGHPYYYGMDVWGQGTTVTVSSGGSGGSGGSGGSQSALTQPASVSGSPGQSITISCTGTSSDVGDYNYVSWYQHHPGKAPKLMIYDVSNRPSGVSNRFSGSKSGNTASLTISGLQAEDEADYYCGSYTGSDTWVFGGGTKVTVL

>  <reported.value>
2890

$$$$
>  <binder>
60-TC7-VII-C02 (scFv, His-tagged) scFv: QVQLQQWGAGLLKPSETLSLTCAVYGGSFSGYYWSWIRQPPGKGLEWIGEINHSGSTNYNPSLKSRVTISVDTSKNQFSLKLSSVTAADTAVYYCARSPLWFGPPDAFDIWGQGTMVTVSSGGSGGSGGSGGSQSALTQPPSASGSPGQSVSISCTGTSSDVGGYNYVSWYQQHPGKAPKLIIYDVDKRPSGIPERFSGSNSGNTATLTISGTQAMDEADYYCQAWDSSTEVVFGGGTKVTVL

>  <reported.value>
135

$$$$
